Target: Cin5 (UniProt P40917)
Sequence: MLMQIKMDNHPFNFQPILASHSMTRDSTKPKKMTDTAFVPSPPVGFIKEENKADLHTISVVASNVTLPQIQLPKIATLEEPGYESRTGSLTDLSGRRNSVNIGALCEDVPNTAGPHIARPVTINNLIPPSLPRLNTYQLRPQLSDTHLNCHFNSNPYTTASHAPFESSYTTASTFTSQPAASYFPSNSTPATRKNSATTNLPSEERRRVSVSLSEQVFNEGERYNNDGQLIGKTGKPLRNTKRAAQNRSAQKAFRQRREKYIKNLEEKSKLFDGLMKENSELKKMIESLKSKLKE
Experiment: PBM E-score (8-mer binding enrichment) (E-score (-0.5 to 0.5)); higher = stronger / more preferred TF binding
Settings: protein concentration: 100 nM; construct: GST-full length
In all, about 33,000 sequences were measured (“E-score (-0.5 to 0.5)”: median about -0.0059, highest 2% from about 0.26 on). The sample holds the highest values, similar sequences and a random draw of the others, so the mix is not that of the screen.
Label True when PBM E-score is at or above 0.09; otherwise label False.

Seq Text: CTCACGCC
Label: False
--
Seq Text: GTCACGCA
Label: False
--
Seq Text: CTGTAATC
Label: True
--
Seq Text: AACCCATA
Label: True
--
Seq Text: GAAAAACA
Label: False
--
Seq Text: CCCGATAG
Label: False
--
Seq Text: CTCAAACA
Label: False
--
Seq Text: AAACTTGT
Label: False
--
Seq Text: CCCTGTGC
Label: False
--
Seq Text: ACCGTTTA
Label: False
--
Seq Text: GCATAAGA
Label: False
--
Seq Text: AAGTAACA
Label: True
--
Seq Text: ATTATCTG
Label: True
--
Seq Text: AAGCAGAA
Label: True
--
Seq Text: CGTGGAAG
Label: True
--
Seq Text: ATGGCAAT
Label: True
--
Seq Text: CTTTGTAA
Label: True
--
Seq Text: CTTATCTC
Label: False
--
Seq Text: GGAATTGA
Label: True
--
Seq Text: AAGTAATT
Label: True
--
Seq Text: CTCCATTA
Label: False
--
Seq Text: CTTATCTA
Label: True
--
Seq Text: AGTGGAAA
Label: False
--
Seq Text: CGTGGAAA
Label: True
--
Seq Text: GCGCGAGC
Label: False
--
Seq Text: GAACTGGA
Label: True
--
Seq Text: ACAAGTAT
Label: True
--
Seq Text: AAGTAACG
Label: False
--
Seq Text: CTGTAATA
Label: True
--
Seq Text: CAGTAATC
Label: True
--
Seq Text: GTGTAATA
Label: True
--
Seq Text: GACCGGAA
Label: False
--
Seq Text: AGTATCAC
Label: False
--
Seq Text: AACCCATT
Label: True
--
Seq Text: AGATCATA
Label: True
--
Seq Text: ATTATCTC
Label: True
--
Seq Text: GTTTTATA
Label: True
--
Seq Text: CCTCACGC
Label: False
--
Seq Text: ACTATCTA
Label: True
--
Seq Text: ATGTAATG
Label: True
--
Seq Text: ACTATCTC
Label: True
--
Seq Text: AGTCTCAG
Label: False
--
Seq Text: ATTTTATG
Label: True
--
Seq Text: TAACTAGA
Label: True

====

Collected PBM E-score values appear next to each entry.
Target: Cin5 (UniProt P40917)
Sequence: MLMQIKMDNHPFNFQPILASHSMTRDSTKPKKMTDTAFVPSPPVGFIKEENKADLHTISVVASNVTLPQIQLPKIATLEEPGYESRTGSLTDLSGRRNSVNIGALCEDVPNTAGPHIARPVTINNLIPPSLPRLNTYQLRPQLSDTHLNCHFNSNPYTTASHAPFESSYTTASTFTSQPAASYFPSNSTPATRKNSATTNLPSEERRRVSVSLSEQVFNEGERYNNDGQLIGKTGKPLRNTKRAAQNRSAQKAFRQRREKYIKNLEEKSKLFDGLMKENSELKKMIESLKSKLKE
Assay: PBM E-score (8-mer binding enrichment) (E-score (-0.5 to 0.5)); higher = stronger / more preferred TF binding
Details: protein concentration: 100 nM; construct: GST-full length
The full ranking holds about 33,000 sequences; the median of “E-score (-0.5 to 0.5)” is about -0.0059, and the highest 2% start at about 0.26. Only a selection was taken, and the highest values are over-represented in it overall.
Observation Type: PBM E-score

Seq Text: ACAACATA
Observation Type: PBM E-score
Observed: 0.268
//
Seq Text: AAAATGGA
Observation Type: PBM E-score
Observed: 0.29
//
Seq Text: AAACCGCC
Observation Type: PBM E-score
Observed: 0.0261
//
Seq Text: CCGCCGAC
Observation Type: PBM E-score
Observed: -0.119
//
Seq Text: ATAACATA
Observation Type: PBM E-score
Observed: 0.26
//
Seq Text: ATAACATC
Observation Type: PBM E-score
Observed: 0.189
//
Seq Text: ACAACATC
Observation Type: PBM E-score
Observed: 0.0575
//
Seq Text: ACGGAAAA
Observation Type: PBM E-score
Observed: 0.161
//
Seq Text: GCAACATA
Observation Type: PBM E-score
Observed: 0.0111
//
Seq Text: CTCGCAAA
Observation Type: PBM E-score
Observed: -0.0438
//
Seq Text: TAAATGTA
Observation Type: PBM E-score
Observed: 0.191

====

Target: Cin5 (UniProt P40917)
Sequence: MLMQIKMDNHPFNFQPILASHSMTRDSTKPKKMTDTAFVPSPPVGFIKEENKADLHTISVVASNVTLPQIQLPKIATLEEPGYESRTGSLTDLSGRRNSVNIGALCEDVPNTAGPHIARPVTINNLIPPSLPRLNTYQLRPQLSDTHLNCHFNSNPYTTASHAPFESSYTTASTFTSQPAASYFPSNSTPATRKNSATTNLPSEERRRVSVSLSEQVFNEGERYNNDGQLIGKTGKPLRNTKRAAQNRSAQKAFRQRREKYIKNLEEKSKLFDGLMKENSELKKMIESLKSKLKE
Assay: PBM E-score (8-mer binding enrichment) (E-score (-0.5 to 0.5)); higher = stronger / more preferred TF binding
Conditions: protein concentration: 100 nM; construct: GST-full length
The full ranking holds about 33,000 sequences; the median of “E-score (-0.5 to 0.5)” is about -0.0059, and the highest 2% start at about 0.26. Only a selection was taken, and the highest values are over-represented in it overall.
Our labelling divides records by PBM E-score into ranges: lower band (below -0.03), central band (-0.03 to below 0.2), upper band (0.2 or more)

Seq Text: GGTAACCA
Assayed System: Cin5 (UniProt P40917)
Label: lower band

Seq Text: GTTTATTA
Assayed System: Cin5 (UniProt P40917)
Label: upper band

Seq Text: ATTACAGA
Assayed System: Cin5 (UniProt P40917)
Label: central band

Seq Text: CTCATTTC
Assayed System: Cin5 (UniProt P40917)
Label: lower band

Seq Text: ATTATTTC
Assayed System: Cin5 (UniProt P40917)
Label: upper band

Seq Text: CATCCCTA
Assayed System: Cin5 (UniProt P40917)
Label: central band

Seq Text: AGTGGTCC
Assayed System: Cin5 (UniProt P40917)
Label: lower band

Seq Text: ATCATTTC
Assayed System: Cin5 (UniProt P40917)
Label: upper band

Seq Text: CTCTTATC
Assayed System: Cin5 (UniProt P40917)
Label: central band

Seq Text: CGCATCGC
Assayed System: Cin5 (UniProt P40917)
Label: lower band

Seq Text: CGACATAC
Assayed System: Cin5 (UniProt P40917)
Label: central band

Seq Text: AAGAGTTA
Assayed System: Cin5 (UniProt P40917)
Label: lower band

Seq Text: AAACCTTG
Assayed System: Cin5 (UniProt P40917)
Label: central band

Seq Text: CACGGCCA
Assayed System: Cin5 (UniProt P40917)
Label: lower band

Seq Text: ATTACAGG
Assayed System: Cin5 (UniProt P40917)
Label: upper band

Seq Text: GGTATTTA
Assayed System: Cin5 (UniProt P40917)
Label: central band

Seq Text: ACTATTTC
Assayed System: Cin5 (UniProt P40917)
Label: upper band

Seq Text: CAGTGCCG
Assayed System: Cin5 (UniProt P40917)
Label: lower band

Seq Text: AATACATA
Assayed System: Cin5 (UniProt P40917)
Label: upper band

Seq Text: CTTATTTC
Assayed System: Cin5 (UniProt P40917)
Label: upper band
